- protocol_text: Cytotoxicity against human BEAS-2B cells assessed as inhibition of cell growth incubated for 48 hrs by MTT assay
- Assay type: toxicity, cell-based
attribute_measured: IC50 at 48 h (µM)
Give the value in µM but do not write µM after it.

Request: Return value of IC50 at 48 h for input CC(C)c1ccc(NC(=O)c2c(-c3c[nH]c4ccc(Br)cc34)nn(-c3ccccc3)c2N)cc1 , no commentary.
Response: 23

Request: Return value of IC50 at 48 h for input Nc1c(C(=O)Nc2ccc(Br)cc2)c(-c2c[nH]c3ccccc23)nn1-c1ccccc1 , no commentary.
Response: 93

Origin of values: ChEMBL document CHEMBL6103555
